Assay: The drug is tested on Enterococcus faecalis strain: ATCC29212 for biotransformation under microaerobic condition. The drug concentrations were measured over 6 timepoints collected between 0 and 12 hours of incubation by liquid-chromatography-coupled mass spectrometry (LC–MS)
Assay type: ADME
Design: dose 5 uM, timepoint 0, 1.5, 3, 6, 9, 12 hours
Settings: 5 µM
Measure: Bacterial Biotransformation

[[record]]
molecule = "C=CC[C@@H]1/C=C(\\C)C[C@H](C)C[C@H](OC)[C@H]2O[C@@](O)(C(=O)C(=O)N3CCCC[C@H]3C(=O)O[C@H](/C(C)=C/[C@@H]3CC[C@@H](O)[C@H](OC)C3)[C@H](C)[C@@H](O)CC1=O)[C@H](C)C[C@@H]2OC.O"
experimental_result = "Compound NOT metabolized"

[[record]]
molecule = "C[C@]12CCC(=O)C=C1CC[C@@H]1[C@@H]2[C@@H](O)C[C@@]2(C)[C@H]1CC[C@]2(O)C(=O)CO [HYDROCORTISONE]"
experimental_result = "Compound NOT metabolized"


###

Assay: The drug is tested on Prevotella copri strain: DSM18205 for biotransformation under anaerobic condition. The drug concentrations were measured over 6 timepoints collected between 0 and 12 hours of incubation by liquid-chromatography-coupled mass spectrometry (LC–MS)
Type: ADME
Parameters: dose 5 uM, timepoint 0, 1.5, 3, 6, 9, 12 hours
Conditions: segatella copri, 5 µM
Measure: Bacterial Biotransformation

Below, each entry is followed by its recorded Bacterial Biotransformation result.
[[record]]
molecule = "CN(Cc1cnc2nc(N)nc(N)c2n1)c1ccc(C(=O)N[C@@H](CCC(=O)O)C(=O)O)cc1 [METHOTREXATE]"
experimental_result = "Compound NOT metabolized"

[[record]]
molecule = "C[C@H]1C[C@@H]2[C@H]([C@@H](O)C[C@@]3(C)[C@H]2CC[C@]3(O)C(=O)CO)[C@@]2(C)C=CC(=O)C=C12"
experimental_result = "Compound NOT metabolized"

[[record]]
molecule = "Cn1cnc([N+](=O)[O-])c1Sc1ncnc2nc[nH]c12"
experimental_result = "Compound metabolized"

[[record]]
molecule = "CCOC(=O)[C@H](CCc1ccccc1)N[C@@H](C)C(=O)N1[C@H](C(=O)O)C[C@@H]2CCC[C@@H]21"
experimental_result = "Compound NOT metabolized"

[[record]]
molecule = "C[C@@H]1C[C@H]2[C@@H]3CCC4=CC(=O)C=C[C@]4(C)[C@@]3(F)[C@@H](O)C[C@]2(C)[C@@]1(O)C(=O)CO"
experimental_result = "Compound NOT metabolized"

[[record]]
molecule = "CCC(C)(C)C(=O)O[C@H]1C[C@@H](C)C=C2C=C[C@H](C)[C@H](CC[C@@H]3C[C@@H](O)CC(=O)O3)[C@H]21"
experimental_result = "Compound metabolized"

[[record]]
molecule = "NS(=O)(=O)c1cc(C(=O)O)c(NCc2ccco2)cc1Cl [FUROSEMIDE]"
experimental_result = "Compound NOT metabolized"

[[record]]
molecule = "C[C@]12C=CC(=O)C=C1CC[C@@H]1[C@@H]2[C@@H](O)C[C@@]2(C)[C@H]1CC[C@]2(O)C(=O)CO"
experimental_result = "Compound NOT metabolized"

[[record]]
molecule = "C[C@H]1C[C@H]2[C@@H]3CCC4=CC(=O)C=C[C@]4(C)[C@@]3(F)[C@@H](O)C[C@]2(C)[C@@]1(O)C(=O)CO"
experimental_result = "Compound NOT metabolized"

[[record]]
molecule = "C[C@]12C=CC(=O)C=C1CC[C@@H]1[C@@H]2C(=O)C[C@@]2(C)[C@H]1CC[C@]2(O)C(=O)CO"
experimental_result = "Compound NOT metabolized"


Give Bacterial Biotransformation for each listed item.
1. CC(C)NCC(O)COc1ccc(CC(N)=O)cc1 (centres undefined)
2. C[C@@H](NCCCc1cccc(C(F)(F)F)c1)c1cccc2ccccc12
3. C=CC[C@@H]1/C=C(\C)C[C@H](C)C[C@H](OC)[C@H]2O[C@@](O)(C(=O)C(=O)N3CCCC[C@H]3C(=O)O[C@H](/C(C)=C/[C@@H]3CC[C@@H](O)[C@H](OC)C3)[C@H](C)[C@@H](O)CC1=O)[C@H](C)C[C@@H]2OC.O
4. CO[C@H]1C[C@@H]2CC[C@@H](C)[C@@](O)(O2)C(=O)C(=O)N2CCCC[C@H]2C(=O)O[C@H]([C@H](C)C[C@@H]2CC[C@@H](O)[C@H](OC)C2)CC(=O)[C@H](C)/C=C(\C)[C@@H](O)[C@@H](OC)C(=O)[C@H](C)C[C@H](C)/C=C/C=C/C=C/1C
5. CO[C@H]1C[C@@H]2CC[C@@H](C)[C@@](O)(O2)C(=O)C(=O)N2CCCC[C@H]2C(=O)O[C@H]([C@H](C)C[C@@H]2CC[C@@H](OCCO)[C@H](OC)C2)CC(=O)[C@H](C)/C=C(\C)[C@@H](O)[C@@H](OC)C(=O)[C@H](C)C[C@H](C)/C=C/C=C/C=C/1C

Reply:
1: Compound NOT metabolized; 2: Compound NOT metabolized; 3: Compound NOT metabolized; 4: Compound NOT metabolized; 5: Compound NOT metabolized

Give Bacterial Biotransformation for each listed item.
1. CNC(=C[N+](=O)[O-])NCCSCc1ccc(CN(C)C)o1
2. COc1c(C)c2c(c(O)c1C/C=C(\C)CCC(=O)OCCN1CCOCC1)C(=O)OC2 [MYCOPHENOLATE MOFETIL]
3. CCCC1O[C@@H]2C[C@H]3[C@@H]4CCC5=CC(=O)C=C[C@]5(C)[C@H]4[C@@H](O)C[C@]3(C)[C@]2(C(=O)CO)O1 (some centres undefined) [BUDESONIDE]
4. COc1c(C)c2c(c(O)c1C/C=C(\C)CCC(=O)O)C(=O)OC2
5. COc1ccc([C@@H]2Sc3ccccc3N(CCN(C)C)C(=O)[C@@H]2OC(C)=O)cc1
6. C[C@]12CCC(=O)C=C1CC[C@@H]1[C@@H]2[C@@H](O)C[C@@]2(C)[C@H]1CC[C@]2(O)C(=O)CO [HYDROCORTISONE]
7. C[C@]12CCC(=O)C=C1CC[C@@H]1[C@@H]2C(=O)C[C@@]2(C)[C@H]1CC[C@]2(O)C(=O)CO

Reply:
1: Compound NOT metabolized; 2: Compound metabolized; 3: Compound NOT metabolized; 4: Compound NOT metabolized; 5: Compound NOT metabolized; 6: Compound NOT metabolized; 7: Compound NOT metabolized

Give Bacterial Biotransformation for each listed item.
1. CCOC(=O)C1=C(COCCN)NC(C)=C(C(=O)OC)C1c1ccccc1Cl (centres undefined)
2. CCOc1nc2cccc(C(=O)O)c2n1Cc1ccc(-c2ccccc2-c2nnn[nH]2)cc1

Reply:
Compound NOT metabolized
Compound NOT metabolized

Just for reference, ChEMBL document CHEMBL5724806 is where these values come from.
